Each entry below carries its recorded Kd.
Target: UniProt O25684
Sequence (O25684 1-223): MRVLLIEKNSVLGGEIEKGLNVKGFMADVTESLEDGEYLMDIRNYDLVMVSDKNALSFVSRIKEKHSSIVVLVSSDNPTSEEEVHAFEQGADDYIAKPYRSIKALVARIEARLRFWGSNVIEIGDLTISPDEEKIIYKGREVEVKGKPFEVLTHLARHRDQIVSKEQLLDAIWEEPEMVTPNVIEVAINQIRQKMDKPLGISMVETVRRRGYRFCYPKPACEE
Please respond with the number in µM and leave the unit unwritten.

CC1=C(C(=O)OCc2ccccc2)C(c2cc(Br)cc(Br)c2O)C2=C(CCC(C)(C)C2=O)N1 (stereo not drawn) | 4

// below: Kd requested for another compound
Please indicate Kd recorded for CC1=C(C(=O)OCC(C)C)C(c2cc([N+](=O)[O-])ccc2O)C2=C(CC(C)(C)CC2=O)N1 (stereo not drawn)
3.5
